Catalogue of molecules with associated log2 ratio of Biotin-Ahx-Ub-VS probe labelling
Target: UniProt P51784
Sequence (P51784 whole entry, the tested form may be a part): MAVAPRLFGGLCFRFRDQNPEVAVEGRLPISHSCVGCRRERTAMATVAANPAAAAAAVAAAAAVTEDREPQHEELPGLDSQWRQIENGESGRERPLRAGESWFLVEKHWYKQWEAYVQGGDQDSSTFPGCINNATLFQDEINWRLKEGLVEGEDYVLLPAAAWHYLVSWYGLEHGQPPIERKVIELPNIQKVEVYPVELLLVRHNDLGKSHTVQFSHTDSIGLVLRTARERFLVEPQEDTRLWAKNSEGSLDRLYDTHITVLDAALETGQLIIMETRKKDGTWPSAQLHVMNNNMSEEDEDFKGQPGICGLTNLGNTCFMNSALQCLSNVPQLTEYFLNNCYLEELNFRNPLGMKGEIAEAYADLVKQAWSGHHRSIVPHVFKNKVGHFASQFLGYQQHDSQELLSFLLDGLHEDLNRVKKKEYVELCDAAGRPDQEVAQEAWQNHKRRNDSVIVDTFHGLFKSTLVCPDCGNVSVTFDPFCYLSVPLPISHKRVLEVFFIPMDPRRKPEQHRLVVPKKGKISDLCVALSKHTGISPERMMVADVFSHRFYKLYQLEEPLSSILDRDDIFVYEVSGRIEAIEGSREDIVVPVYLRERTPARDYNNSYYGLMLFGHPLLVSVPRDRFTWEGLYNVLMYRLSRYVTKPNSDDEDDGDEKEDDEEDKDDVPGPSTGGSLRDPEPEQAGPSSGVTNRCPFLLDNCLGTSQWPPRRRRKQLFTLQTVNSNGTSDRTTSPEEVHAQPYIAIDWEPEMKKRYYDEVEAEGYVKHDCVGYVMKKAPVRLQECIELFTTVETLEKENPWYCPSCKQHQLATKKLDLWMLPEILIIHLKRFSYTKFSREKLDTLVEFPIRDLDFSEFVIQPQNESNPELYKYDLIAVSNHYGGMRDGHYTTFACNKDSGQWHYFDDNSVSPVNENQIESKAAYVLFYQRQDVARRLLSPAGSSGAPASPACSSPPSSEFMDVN
Assay: log2 ratio of Biotin-Ahx-Ub-VS probe labelling (fragment/DMSO); higher = less target engagement (more negative = stronger competition), active = hit call of the paper (q ≤ 0.05, log2 ratio ≤ -1)
Settings: compound concentration: 200 uM; treatment time: 3 h
Format: numeric value only, no unit, no commentary.

Example entries and their recorded answers appear below.
>>> result("O=C(CCl)NC1CCOc2ccccc21 (stereo not drawn)")
-0.702
>>> result("O=C(CCl)Nc1ccccc1C(F)(F)F")
-0.127
>>> result("O=C(CCl)NCCc1ccc(F)cc1")
0.00457
>>> result("O=C(CCl)NCc1noc(C2CC2)n1")
0.0106

Task: Enter reported log2 ratio of Biotin-Ahx-Ub-VS probe labelling observed with UniProt P51784 for Cc1ccccc1CN(C)C(=O)CCl
Result: -0.62

---

Target: USP7 (UniProt Q93009)
Sequence (Q93009 whole entry, looked up, the tested form may be a part): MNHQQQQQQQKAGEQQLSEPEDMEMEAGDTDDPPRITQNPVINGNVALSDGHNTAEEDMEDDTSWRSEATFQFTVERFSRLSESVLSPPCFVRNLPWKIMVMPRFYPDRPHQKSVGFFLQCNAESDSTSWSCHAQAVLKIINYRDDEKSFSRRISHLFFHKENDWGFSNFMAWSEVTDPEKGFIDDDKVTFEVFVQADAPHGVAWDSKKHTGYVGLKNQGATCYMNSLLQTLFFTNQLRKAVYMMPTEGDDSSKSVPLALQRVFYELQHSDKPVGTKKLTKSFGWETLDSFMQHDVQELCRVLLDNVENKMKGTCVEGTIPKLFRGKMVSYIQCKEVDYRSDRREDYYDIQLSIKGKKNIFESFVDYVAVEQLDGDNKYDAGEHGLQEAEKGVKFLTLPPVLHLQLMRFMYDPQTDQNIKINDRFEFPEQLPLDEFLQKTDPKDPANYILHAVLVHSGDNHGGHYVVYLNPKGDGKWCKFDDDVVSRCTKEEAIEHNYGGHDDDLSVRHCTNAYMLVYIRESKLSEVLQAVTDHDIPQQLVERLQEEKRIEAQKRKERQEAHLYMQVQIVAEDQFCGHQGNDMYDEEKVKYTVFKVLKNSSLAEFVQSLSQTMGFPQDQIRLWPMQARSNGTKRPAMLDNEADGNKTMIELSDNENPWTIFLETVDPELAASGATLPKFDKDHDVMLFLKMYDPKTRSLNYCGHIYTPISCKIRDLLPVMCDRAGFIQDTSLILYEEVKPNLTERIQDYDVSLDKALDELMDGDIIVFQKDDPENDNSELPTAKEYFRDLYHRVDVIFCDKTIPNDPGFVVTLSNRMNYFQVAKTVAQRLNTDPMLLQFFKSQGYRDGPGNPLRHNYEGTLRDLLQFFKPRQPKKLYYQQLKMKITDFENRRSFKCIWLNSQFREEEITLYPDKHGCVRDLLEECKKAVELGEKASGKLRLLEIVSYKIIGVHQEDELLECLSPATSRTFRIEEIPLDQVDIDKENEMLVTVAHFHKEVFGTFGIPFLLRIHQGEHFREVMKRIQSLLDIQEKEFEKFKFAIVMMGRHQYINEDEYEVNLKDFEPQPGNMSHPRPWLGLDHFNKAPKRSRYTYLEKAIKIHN
Assay: log2 ratio of Biotin-Ahx-Ub-VS probe labelling (fragment/DMSO); higher = less target engagement (more negative = stronger competition), active = hit call of the paper (q ≤ 0.05, log2 ratio ≤ -1)
Conditions: compound concentration: 200 uM; treatment time: 3 h
# output must be one of active, inactive

>>> category("CN(Cc1nc2ccccc2[nH]1)C(=O)CCl.Cl")
"active"

Task: Assay outcome for COc1ccc(Cl)cc1NC(=O)CCl : what was it?
Result: inactive

Task: Let us now turn to O=C(CCl)NCc1noc(C2CC2)n1
Result: inactive

Task: Let us now turn to N#Cc1cnn(-c2ccccc2)c1NC(=O)CCl
Result: inactive

---

Biological target: OTUB1 (UniProt Q96FW1)
Sequence (Q96FW1 whole entry, the tested form may be a part): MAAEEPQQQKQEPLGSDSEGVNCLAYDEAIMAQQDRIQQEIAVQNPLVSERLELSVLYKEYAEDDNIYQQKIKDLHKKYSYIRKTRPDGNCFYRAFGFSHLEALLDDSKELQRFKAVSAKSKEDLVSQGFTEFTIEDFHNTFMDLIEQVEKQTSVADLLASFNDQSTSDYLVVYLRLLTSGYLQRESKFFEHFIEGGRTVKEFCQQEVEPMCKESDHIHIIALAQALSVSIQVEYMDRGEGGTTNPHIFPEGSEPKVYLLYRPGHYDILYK
Experiment: log2 ratio of Biotin-Ahx-Ub-VS probe labelling (fragment/DMSO); higher = less target engagement (more negative = stronger competition), active = hit call of the paper (q ≤ 0.05, log2 ratio ≤ -1)
Conditions: compound concentration: 200 uM; treatment time: 3 h
Tick met if log2 ratio of Biotin-Ahx-Ub-VS probe labelling is 0.08 or greater. Tick not met if log2 ratio of Biotin-Ahx-Ub-VS probe labelling is less than 0.08.

>>> category("O=C(CCl)N1CCC(c2ccn[nH]2)C1 (stereo not given)")
"not met"
>>> category("O=C(CCl)NCC1(c2ccccc2)CC1")
"not met"
>>> category("CCC1c2ccsc2CCN1C(=O)CCl (stereo not given)")
"met"
>>> category("Cc1nnc(C(NC(=O)CCl)c2ccccc2)n1C (stereo not given)")
"not met"

Task: Could you please find out whether Cc1ccn2cc(CNC(=O)CCl)nc2c1.Cl has log2 ratio of Biotin-Ahx-Ub-VS probe labelling that meets 0.08 or exceeds it?
Result: not met

---

Molecular target: USP28 (UniProt Q96RU2)
Sequence (whole entry): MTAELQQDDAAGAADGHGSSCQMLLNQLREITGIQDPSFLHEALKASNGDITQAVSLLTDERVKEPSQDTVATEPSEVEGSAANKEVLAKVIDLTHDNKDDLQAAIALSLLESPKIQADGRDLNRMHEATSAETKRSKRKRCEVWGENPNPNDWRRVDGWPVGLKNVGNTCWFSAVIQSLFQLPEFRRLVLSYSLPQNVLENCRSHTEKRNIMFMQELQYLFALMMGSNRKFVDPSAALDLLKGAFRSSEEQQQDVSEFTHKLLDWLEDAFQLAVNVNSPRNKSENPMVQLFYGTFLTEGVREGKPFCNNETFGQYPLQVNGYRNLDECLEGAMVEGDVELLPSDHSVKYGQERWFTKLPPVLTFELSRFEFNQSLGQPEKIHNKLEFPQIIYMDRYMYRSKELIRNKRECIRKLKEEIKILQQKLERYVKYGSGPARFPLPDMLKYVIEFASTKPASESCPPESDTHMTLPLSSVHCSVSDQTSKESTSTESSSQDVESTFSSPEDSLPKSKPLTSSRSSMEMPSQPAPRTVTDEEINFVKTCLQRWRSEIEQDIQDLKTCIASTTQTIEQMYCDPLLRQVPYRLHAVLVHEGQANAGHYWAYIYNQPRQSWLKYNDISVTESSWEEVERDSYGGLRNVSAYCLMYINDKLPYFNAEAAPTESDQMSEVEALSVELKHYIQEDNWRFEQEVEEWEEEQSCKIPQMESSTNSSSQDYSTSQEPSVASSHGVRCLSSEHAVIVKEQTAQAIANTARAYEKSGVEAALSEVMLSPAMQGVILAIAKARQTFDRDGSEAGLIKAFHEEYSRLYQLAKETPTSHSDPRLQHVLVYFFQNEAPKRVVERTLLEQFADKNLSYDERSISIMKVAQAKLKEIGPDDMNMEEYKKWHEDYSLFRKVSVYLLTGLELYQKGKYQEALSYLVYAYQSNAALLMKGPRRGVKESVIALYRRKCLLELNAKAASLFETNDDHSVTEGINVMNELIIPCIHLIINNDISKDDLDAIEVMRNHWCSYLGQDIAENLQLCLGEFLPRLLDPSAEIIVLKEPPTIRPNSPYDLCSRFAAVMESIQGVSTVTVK
Assay: log2 ratio of Biotin-Ahx-Ub-VS probe labelling (fragment/DMSO); higher = less target engagement (more negative = stronger competition), active = hit call of the paper (q ≤ 0.05, log2 ratio ≤ -1)
Details: compound concentration: 200 uM; treatment time: 3 h
Catalogue of compounds with associated log2 ratio of Biotin-Ahx-Ub-VS probe labelling
Format: numeric value only, no unit, no commentary.

Example entries and their recorded answers appear below.
>>> result("O=C(CCl)NC1(c2ccc3c(c2)OCCO3)CCCC1")
-0.402
>>> result("Cc1ncc2c(n1)CCN(C(=O)CCl)C2")
-0.688

Task: Please report the recorded log2 ratio of Biotin-Ahx-Ub-VS probe labelling for O=C(CCl)N1CCCC1c1ccsc1 (stereo not drawn) .
Result: -0.704

---

Molecular target: USP25 (UniProt Q9UHP3)
Sequence (Q9UHP3 whole entry, the tested form may be a part): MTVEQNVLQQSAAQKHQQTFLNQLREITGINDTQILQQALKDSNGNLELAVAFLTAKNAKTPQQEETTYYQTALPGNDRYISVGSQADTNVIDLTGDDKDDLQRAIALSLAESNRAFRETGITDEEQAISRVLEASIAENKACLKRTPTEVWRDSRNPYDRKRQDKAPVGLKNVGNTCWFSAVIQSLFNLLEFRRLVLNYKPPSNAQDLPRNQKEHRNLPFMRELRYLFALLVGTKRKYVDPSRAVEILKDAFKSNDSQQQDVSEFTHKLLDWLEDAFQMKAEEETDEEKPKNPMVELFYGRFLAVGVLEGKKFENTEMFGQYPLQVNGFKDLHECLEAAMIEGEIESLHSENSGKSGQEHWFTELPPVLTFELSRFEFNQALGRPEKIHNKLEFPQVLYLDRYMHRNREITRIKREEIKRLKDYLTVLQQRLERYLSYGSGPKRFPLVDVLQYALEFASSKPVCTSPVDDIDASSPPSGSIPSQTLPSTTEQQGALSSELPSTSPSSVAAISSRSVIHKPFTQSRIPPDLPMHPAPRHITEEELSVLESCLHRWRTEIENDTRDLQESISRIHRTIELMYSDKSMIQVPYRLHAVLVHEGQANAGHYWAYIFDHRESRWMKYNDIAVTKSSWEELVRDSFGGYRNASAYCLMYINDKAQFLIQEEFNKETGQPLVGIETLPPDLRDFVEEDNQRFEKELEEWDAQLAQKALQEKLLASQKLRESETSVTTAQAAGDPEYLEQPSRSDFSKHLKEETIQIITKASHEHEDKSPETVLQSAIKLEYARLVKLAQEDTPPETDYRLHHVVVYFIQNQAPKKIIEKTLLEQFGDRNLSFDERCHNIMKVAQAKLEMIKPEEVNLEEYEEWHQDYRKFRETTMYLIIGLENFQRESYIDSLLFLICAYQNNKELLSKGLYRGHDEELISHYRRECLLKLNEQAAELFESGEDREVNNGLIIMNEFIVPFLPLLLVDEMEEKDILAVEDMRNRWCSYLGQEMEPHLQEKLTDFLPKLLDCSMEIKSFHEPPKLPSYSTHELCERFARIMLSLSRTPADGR
Experiment: log2 ratio of Biotin-Ahx-Ub-VS probe labelling (fragment/DMSO); higher = less target engagement (more negative = stronger competition), active = hit call of the paper (q ≤ 0.05, log2 ratio ≤ -1)
Settings: compound concentration: 200 uM; treatment time: 3 h
Tick True if log2 ratio of Biotin-Ahx-Ub-VS probe labelling is -0.4 or greater. Tick False if log2 ratio of Biotin-Ahx-Ub-VS probe labelling is less than -0.4.

Example entries and their recorded answers appear below.
>>> category("O=C(CCl)N1CCCC1c1ccsc1 (stereo not given)")
"False"
>>> category("Cc1ccc(CC(CO)CNC(=O)CCl)cc1 (stereo not given)")
"False"
>>> category("CC(NC(=O)CCl)c1cccc2ccccc12 (stereo not given)")
"True"
>>> category("Cc1c(NC(=O)CCl)c(=O)n(-c2ccccc2)n1C")
"True"
>>> category("Cc1c(C#N)c(NC(=O)CCl)n(Cc2ccco2)c1C")
"False"
>>> category("CC(NC(=O)CCl)c1ccc2[nH]ncc2c1 (stereo not given)")
"False"
>>> category("COc1ccc(-c2csc(NC(=O)CCl)n2)cc1")
"False"
>>> category("COc1ccc(Cl)cc1NC(=O)CCl")
"False"
>>> category("CN(C)C(=O)c1ccc(CNC(=O)CCl)cc1")
"False"
>>> category("O=C(CCl)NCC1(c2ccccc2)CC1")
"True"

Task: Could you please find out whether O=C(CCl)N1CCOC(c2cccc(F)c2)C1 (stereo not given) has log2 ratio of Biotin-Ahx-Ub-VS probe labelling that meets -0.4 or exceeds it?
Result: False

Task: Let us now turn to CCCn1nccc1NC(=O)CCl
Result: True

Task: Let us now turn to Cl.Cn1nc2c(c1CNC(=O)CCl)CCCC2
Result: True

Task: Let us now turn to O=C(CCl)N1CCc2ccccc2C(O)C1 (stereo not given)
Result: True

Task: Let us now turn to O=C(CCl)N1CCC(c2ccn[nH]2)C1 (stereo not given)
Result: False

Task: Let us now turn to O=C(CCl)N1CCOCC1C1CC1 (stereo not given)
Result: True

Task: Let us now turn to Cl.O=C(CCl)N1CCN(Cc2ccccc2)CC1
Result: True

Task: Let us now turn to COc1ccc(C2CCCN2C(=O)CCl)c(OC)c1 (stereo not given)
Result: True

---

Molecular target: USP39 (UniProt Q53GS9)
Sequence (Q53GS9 whole entry, the tested form may be a part): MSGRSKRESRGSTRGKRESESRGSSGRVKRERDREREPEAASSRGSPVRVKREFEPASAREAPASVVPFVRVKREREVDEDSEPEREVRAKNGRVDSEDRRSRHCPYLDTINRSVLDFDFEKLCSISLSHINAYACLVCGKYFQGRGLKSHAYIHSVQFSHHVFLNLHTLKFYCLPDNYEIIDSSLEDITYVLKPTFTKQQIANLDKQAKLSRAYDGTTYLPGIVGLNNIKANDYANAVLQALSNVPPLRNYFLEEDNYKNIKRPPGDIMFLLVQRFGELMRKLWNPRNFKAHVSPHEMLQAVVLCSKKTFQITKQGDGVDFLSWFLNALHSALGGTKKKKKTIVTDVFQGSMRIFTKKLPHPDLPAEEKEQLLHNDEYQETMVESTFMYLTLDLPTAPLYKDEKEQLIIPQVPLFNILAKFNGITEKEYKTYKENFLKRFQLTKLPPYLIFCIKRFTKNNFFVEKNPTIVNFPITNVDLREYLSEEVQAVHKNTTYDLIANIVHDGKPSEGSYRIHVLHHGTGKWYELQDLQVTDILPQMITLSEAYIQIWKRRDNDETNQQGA
Assay: log2 ratio of Biotin-Ahx-Ub-VS probe labelling (fragment/DMSO); higher = less target engagement (more negative = stronger competition), active = hit call of the paper (q ≤ 0.05, log2 ratio ≤ -1)
Conditions: compound concentration: 200 uM; treatment time: 3 h
Tick criterion met if log2 ratio of Biotin-Ahx-Ub-VS probe labelling is 0.1 or greater. Tick criterion not met if log2 ratio of Biotin-Ahx-Ub-VS probe labelling is less than 0.1.

Example entries and their recorded answers appear below.
>>> category("CC1(NC(=O)CCl)CCS(=O)(=O)C1 (stereo unspecified)")
"criterion not met"
>>> category("O=C(CCl)NC1CCN(C(=O)C2CCCCC2)CC1")
"criterion met"
>>> category("CNC(=O)Cn1cc(NC(=O)CCl)cn1")
"criterion met"
>>> category("CN(C)S(=O)(=O)c1ccccc1CNC(=O)CCl")
"criterion met"
>>> category("Cl.O=C(CCl)N[C@H]1C[C@@H](n2cccn2)C1")
"criterion met"
>>> category("O=C(CCl)NCc1ccc(N2CCOCC2)c(F)c1")
"criterion not met"

Consider the record given below.
Task: Could you please find out whether O=C(CCl)Nc1cc(Cl)ccc1C(=O)O has log2 ratio of Biotin-Ahx-Ub-VS probe labelling that meets 0.1 or exceeds it?
Result: criterion met
